Give MIC for every item shown.
System: Streptococcus pneumoniae
Assay: Antibacterial activity against penicillin-resistant Streptococcus pneumoniae after 18 hrs by NCCLS agar dilution method
Assay type: functional
Kindly answer with a numeric value in µg/mL, unit omitted.

Input line: Query (compound): Cc1cn(C[C@H]2CN(c3ccc(N4CCN(C(=O)CNC(=O)c5cc([N+](=O)[O-])cc([N+](=O)[O-])c5)CC4)c(F)c3)C(=O)O2)nn1 ; field requested: MIC
Output line: 0.25

Input line: Now the same for Cc1cn(C[C@H]2CN(c3ccc(N4CCN(C(=O)CNC(=O)C(F)(F)F)CC4)c(F)c3)C(=O)O2)nn1
Output line: 1

Input line: Please give the result for CC(=O)NCC(=O)N1CCN(c2ccc(N3C[C@H](Cn4ccnn4)OC3=O)cc2F)CC1 too.
Output line: 1

Input line: Same question, Cc1cn(C[C@H]2CN(c3ccc(N4CCN(C(=O)CNC(=O)c5ccco5)CC4)c(F)c3)C(=O)O2)nn1 this time
Output line: 0.5

###

For each entry below, report its MIC value.
Test system: Moraxella catarrhalis
Experiment: Antibacterial activity against Moraxella catarrhalis clinical isolate 2824 after 18 hrs by NCCLS agar dilution method
Assay type: functional
Conditions: clinical isolate 2824, 18 h
Record the value in µg/mL, omitting the unit from your answer.

Input line: Item Cc1cn(C[C@H]2CN(c3ccc(N4CCN(C(=O)CNC(=O)c5cccnc5)CC4)c(F)c3)C(=O)O2)nn1 has what recorded MIC?
Output line: 8

Input line: What about Cc1cn(C[C@H]2CN(c3ccc(N4CCN(C(=O)CNC(=O)c5cc([N+](=O)[O-])cc([N+](=O)[O-])c5)CC4)c(F)c3)C(=O)O2)nn1 ?
Output line: 1

###

System: Staphylococcus
Experiment: Antibacterial activity against methicillin-resistant coagulase-negative Staphylococcus after 18 hrs by NCCLS agar dilution method
Assay type: functional
Assign MIC to each entry below.
Numeric answer only, unit µg/mL assumed.

Input line: Data request, read-out MIC, for Cc1cn(C[C@H]2CN(c3ccc(N4CCN(C(=O)CNC(=O)C(Cl)Cl)CC4)c(F)c3)C(=O)O2)nn1
Output line: 4

Input line: Lookup CCOC(=O)CC(=O)NCC(=O)N1CCN(c2ccc(N3C[C@H](Cn4cc(C)nn4)OC3=O)cc2F)CC1
Output line: 4

Input line: Next molecule: Cc1cn(C[C@H]2CN(c3ccc(N4CCN(C(=O)CNC(=O)OC(C)(C)C)CC4)c(F)c3)C(=O)O2)nn1
Output line: 4

Input line: Same question, CC(C)(C)OC(=O)NCC(=O)N1CCN(c2ccc(N3C[C@H](Cn4ccnn4)OC3=O)cc2F)CC1 this time
Output line: 2

Input line: Next: O=C(NCC(=O)N1CCN(c2ccc(N3C[C@H](Cn4ccnn4)OC3=O)cc2F)CC1)c1ccc([N+](=O)[O-])o1
Output line: 0.06

Input line: // next record CC(=O)NCC(=O)N1CCN(c2ccc(N3C[C@H](Cn4ccnn4)OC3=O)cc2F)CC1
Output line: 2

Input line: // query: O=C(NCC(=O)N1CCN(c2ccc(N3C[C@H](Cn4ccnn4)OC3=O)cc2F)CC1)C1CCCO1 (stereo not given in full)
Output line: 4

Input line: // same read-out, input: Cc1cn(C[C@H]2CN(c3ccc(N4CCN(C(=O)CNC(=O)c5ccco5)CC4)c(F)c3)C(=O)O2)nn1
Output line: 2

Input line: What do we get for O=C(NCC(=O)N1CCN(c2ccc(N3C[C@H](Cn4ccnn4)OC3=O)cc2F)CC1)c1cc([N+](=O)[O-])cc([N+](=O)[O-])c1 ?
Output line: 0.5

Input line: Ok, now O=C(NCC(=O)N1CCN(c2ccc(N3C[C@H](Cn4ccnn4)OC3=O)cc2F)CC1)c1ccco1
Output line: 1

Input line: Input CC(=O)NC[C@H]1CN(c2ccc(N3CCOCC3)c(F)c2)C(=O)O1 [LINEZOLID]
Output line: 0.5

Input line: Repeat with Cc1cn(C[C@H]2CN(c3ccc(N4CCN(C(=O)CNC(=O)c5cccnc5)CC4)c(F)c3)C(=O)O2)nn1
Output line: 1

Input line: // same read-out, input: Cc1cn(C[C@H]2CN(c3ccc(N4CCN(C(=O)CNC(=O)c5ccccc5)CC4)c(F)c3)C(=O)O2)nn1
Output line: 0.5

Input line: Entry to check: Cc1cn(C[C@H]2CN(c3ccc(N4CCN(C(=O)CNS(=O)(=O)c5cccs5)CC4)c(F)c3)C(=O)O2)nn1
Output line: 8

Input line: Thanks! And Cc1cn(C[C@H]2CN(c3ccc(N4CCN(C(=O)CNC(=O)c5cc([N+](=O)[O-])cc([N+](=O)[O-])c5)CC4)c(F)c3)C(=O)O2)nn1 ?
Output line: 1

Input line: Request: Cc1cn(C[C@H]2CN(c3ccc(N4CCN(C(=O)CNC(=O)c5cccs5)CC4)c(F)c3)C(=O)O2)nn1
Output line: 1

Input line: Repeat with CCOC(=O)CC(=O)NCC(=O)N1CCN(c2ccc(N3C[C@H](Cn4ccnn4)OC3=O)cc2F)CC1
Output line: 4

Input line: Let us now turn to Cc1cn(C[C@H]2CN(c3ccc(N4CCN(C(=O)CNC(=O)C(F)(F)F)CC4)c(F)c3)C(=O)O2)nn1
Output line: 4

Input line: Same question for Cc1cn(C[C@H]2CN(c3ccc(N4CCN(C(=O)CNC(=O)c5ccc([N+](=O)[O-])o5)CC4)c(F)c3)C(=O)O2)nn1 please.
Output line: 0.06

Input line: Another molecule to look at: O=C(NCC(=O)N1CCN(c2ccc(N3C[C@H](Cn4ccnn4)OC3=O)cc2F)CC1)c1cccnc1
Output line: 1

Input line: Also, O=C(CNS(=O)(=O)c1cccs1)N1CCN(c2ccc(N3C[C@H](Cn4ccnn4)OC3=O)cc2F)CC1 please.
Output line: 2

Input line: Now give it for Cc1cn(C[C@H]2CN(c3ccc(N4CCN(C(=O)CNC(=O)C5CCCO5)CC4)c(F)c3)C(=O)O2)nn1 (stereo not given in full) too.
Output line: 16

Input line: Item: CC(=O)NCC(=O)N1CCN(c2ccc(N3C[C@H](Cn4cc(C)nn4)OC3=O)cc2F)CC1
Output line: 2

Input line: Same thing, different molecule: O=C(NCC(=O)N1CCN(c2ccc(N3C[C@H](Cn4ccnn4)OC3=O)cc2F)CC1)c1cccs1
Output line: 0.5

Input line: Can you handle O=C(NCC(=O)N1CCN(c2ccc(N3C[C@H](Cn4ccnn4)OC3=O)cc2F)CC1)c1ccccc1 next?
Output line: 0.5

Where do these numbers come from? They come from ChEMBL document CHEMBL2412955.
